Biological target: D(2) dopamine receptor (Rattus norvegicus)
Sequence (P61169 whole entry): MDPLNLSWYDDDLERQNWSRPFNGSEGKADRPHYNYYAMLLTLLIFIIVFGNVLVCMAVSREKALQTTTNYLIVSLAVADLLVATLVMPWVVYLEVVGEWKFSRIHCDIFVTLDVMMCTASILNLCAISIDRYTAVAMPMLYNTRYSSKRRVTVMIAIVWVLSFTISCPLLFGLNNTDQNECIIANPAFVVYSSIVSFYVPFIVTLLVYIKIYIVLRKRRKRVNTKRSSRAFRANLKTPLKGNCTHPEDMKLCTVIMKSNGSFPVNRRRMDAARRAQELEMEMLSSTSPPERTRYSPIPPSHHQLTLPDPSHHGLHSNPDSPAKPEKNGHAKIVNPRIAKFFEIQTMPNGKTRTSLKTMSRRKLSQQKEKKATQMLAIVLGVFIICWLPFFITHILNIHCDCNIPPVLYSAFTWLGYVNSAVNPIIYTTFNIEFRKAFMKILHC
Test: Displacement of [3H]spiperone from dopamine D2 receptor in Sprague-Dawley rat striatum incubated for 30 mins by liquid scintillation counting analysis
compounds and their reported Ki
Respond numerically; units are nM and should not be typed.

{"SMILES DATA": "O=c1ccc(OCCCN2CCN(c3cccc(C(F)(F)F)c3)CC2)nn1-c1ccc(Cl)c(Cl)c1", "Ki [nM]": 916}

Task item: Given "O=c1ccc(OCCCCCN2CCC(c3noc4cc(F)ccc34)CC2)nn1-c1ccc(Cl)c(Cl)c1" , respond with its Ki.
Reply: 40.3

Task item: Please supply the value of reported Ki for the item "COc1ccc(N2CCN(CCCOc3ccc(=O)n(-c4ccc(Cl)c(Cl)c4)n3)CC2)cc1"
Reply: 845

Task item: Given the compound "O=c1ccc(OCCCN2CCC(c3noc4cc(F)ccc34)CC2)nn1-c1cccc(Cl)c1Cl" , write its reported Ki.
Reply: 0.2

Task item: Name the recorded Ki of the compound listed here: "O=c1ccc(OCCCN2CCC(c3noc4cc(F)ccc34)CC2)nn1-c1ccccc1"
Reply: 45.5

Task item: Entry "O=c1ccc(OCCCN2CCC(c3noc4cc(F)ccc34)CC2)nn1-c1cccc(Cl)c1" needs its Ki filled in; supply it.
Reply: 41.1

Task item: Give the reported Ki for this compound. "O=c1ccc(OCCCCN2CCC(c3noc4cc(F)ccc34)CC2)nn1-c1ccc(Cl)c(Cl)c1"
Reply: 26.7

Task item: Give recorded Ki. "O=c1ccc(OCCCN2CCN(c3ccc(F)cc3)CC2)nn1-c1ccc(Cl)c(Cl)c1"
Reply: 953

----------
Target: Adrenergic receptor alpha-1 (Rattus norvegicus, UniProt P15823+P23944+P43140)
Experiment: Displacement of [3H]prazosin from adrenergic alpha1 receptor in Sprague-Dawley rat cerebral cortex incubated for 60 mins by liquid scintillation counting analysis
ASSAY ENDPOINT: Ki (nM)
Give the number; nM is assumed, so skip it.

Task item: Give the measured Ki for "O=c1ccc(OCCCN2CCC(c3noc4cc(F)ccc34)CC2)nn1-c1c(F)cccc1F"
Reply: 1098

Task item: Specify Ki for "O=c1ccc(OCCCN2CCC(c3noc4cc(F)ccc34)CC2)nn1-c1cc(Cl)ccc1Cl" and stop.
Reply: 147

Task item: Return Ki for the following molecule: "O=c1ccc(OCCCN2CCC(c3noc4cc(F)ccc34)CC2)nn1-c1cccc(Cl)c1Cl"
Reply: 118

Task item: Please look at this molecule and report its Ki: "O=c1ccc(OCCCN2CCC(c3noc4cc(F)ccc34)CC2)nn1-c1cc(F)ccc1F"
Reply: 337

----------
Molecular target: 5-hydroxytryptamine receptor 2A (Rattus norvegicus)
Sequence (P14842 whole entry): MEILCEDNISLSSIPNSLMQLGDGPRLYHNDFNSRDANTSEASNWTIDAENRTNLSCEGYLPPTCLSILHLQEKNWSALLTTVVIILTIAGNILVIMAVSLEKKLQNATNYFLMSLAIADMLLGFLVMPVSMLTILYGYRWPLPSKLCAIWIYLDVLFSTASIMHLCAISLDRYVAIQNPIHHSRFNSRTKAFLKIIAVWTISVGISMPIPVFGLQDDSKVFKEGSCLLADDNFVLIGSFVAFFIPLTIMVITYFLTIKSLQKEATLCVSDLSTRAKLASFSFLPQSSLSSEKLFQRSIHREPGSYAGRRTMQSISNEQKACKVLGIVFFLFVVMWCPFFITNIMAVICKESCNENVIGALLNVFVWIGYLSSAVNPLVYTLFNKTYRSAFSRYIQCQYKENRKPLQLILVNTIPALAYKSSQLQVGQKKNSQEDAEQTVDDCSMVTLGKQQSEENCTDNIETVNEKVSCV
pKi: −log10 of the molar value.
Respond with Met for pKi values of 7 and above, Not met for values below.

A selection of reference data follows.
{"SMILES DATA": "O=c1ccc(OCCCN2CCC(c3noc4cc(F)ccc34)CC2)nn1-c1ccc(Cl)cc1", "SYSTEM TESTED": "5-hydroxytryptamine receptor 2A (Rattus norvegicus)", "ANSWER LABEL": "Met"}
{"SMILES DATA": "O=c1ccc(OCCCN2CCC(c3noc4cc(F)ccc34)CC2)nn1-c1ccc(F)c(F)c1", "SYSTEM TESTED": "5-hydroxytryptamine receptor 2A (Rattus norvegicus)", "ANSWER LABEL": "Met"}
{"SMILES DATA": "O=c1ccc(OCCCCN2CCC(c3noc4cc(F)ccc34)CC2)nn1-c1ccc(Cl)c(Cl)c1", "SYSTEM TESTED": "5-hydroxytryptamine receptor 2A (Rattus norvegicus)", "ANSWER LABEL": "Met"}

Please look at the following compound next.
Task item: Given "NC(=O)c1ccc2occ(N3CCN(CCCOc4ccc(=O)n(-c5ccc(Cl)c(Cl)c5)n4)CC3)c2c1" , state whether its pKi is at least 7.
Reply: Not met

----------
Target: 5-hydroxytryptamine receptor 6 (Homo sapiens)
Sequence (P50406 whole entry): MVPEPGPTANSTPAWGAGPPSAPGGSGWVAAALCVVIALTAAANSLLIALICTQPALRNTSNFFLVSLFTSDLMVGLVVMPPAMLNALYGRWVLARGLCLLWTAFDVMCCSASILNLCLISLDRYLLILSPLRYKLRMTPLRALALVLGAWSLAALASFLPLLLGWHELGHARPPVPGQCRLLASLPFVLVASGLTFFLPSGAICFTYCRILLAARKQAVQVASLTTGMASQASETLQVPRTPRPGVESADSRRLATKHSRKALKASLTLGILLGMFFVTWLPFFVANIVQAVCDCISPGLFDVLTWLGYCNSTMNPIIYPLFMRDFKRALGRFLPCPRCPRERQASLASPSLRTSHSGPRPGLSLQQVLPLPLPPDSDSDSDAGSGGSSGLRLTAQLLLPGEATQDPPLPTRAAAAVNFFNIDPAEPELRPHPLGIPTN
Assay: Displacement of [3H]lysergic acid diethylamide from human recombinant 5-HT6 receptor expressed in CHO cell membranes for 30 mins by liquid scintillation counting analysis
ASSAY ENDPOINT: Ki (nM)
Provide only the numeric value, understood in nM.

# example entries with known answers
{"SMILES DATA": "O=c1ccc(OCCCN2CCC(c3noc4cc(F)ccc34)CC2)nn1-c1c(F)cccc1F", "SYSTEM TESTED": "5-hydroxytryptamine receptor 6 (Homo sapiens)", "Ki, nM": 0.5}
{"SMILES DATA": "O=c1ccc(OCCCN2CCC(c3noc4cc(F)ccc34)CC2)nn1-c1cc(Cl)ccc1Cl", "SYSTEM TESTED": "5-hydroxytryptamine receptor 6 (Homo sapiens)", "Ki, nM": 11.7}
{"SMILES DATA": "O=c1ccc(OCCCN2CCC(c3noc4cc(F)ccc34)CC2)nn1-c1cc(F)ccc1F", "SYSTEM TESTED": "5-hydroxytryptamine receptor 6 (Homo sapiens)", "Ki, nM": 3.8}

Alright, here's another compound for you.
Task item: Give the reported Ki for this compound. "O=c1ccc(OCCCN2CCC(c3noc4cc(F)ccc34)CC2)nn1-c1cccc(Cl)c1Cl"
Reply: 113

----------
Biological target: 5-hydroxytryptamine receptor 2C (Rattus norvegicus)
Sequence (P08909 whole entry): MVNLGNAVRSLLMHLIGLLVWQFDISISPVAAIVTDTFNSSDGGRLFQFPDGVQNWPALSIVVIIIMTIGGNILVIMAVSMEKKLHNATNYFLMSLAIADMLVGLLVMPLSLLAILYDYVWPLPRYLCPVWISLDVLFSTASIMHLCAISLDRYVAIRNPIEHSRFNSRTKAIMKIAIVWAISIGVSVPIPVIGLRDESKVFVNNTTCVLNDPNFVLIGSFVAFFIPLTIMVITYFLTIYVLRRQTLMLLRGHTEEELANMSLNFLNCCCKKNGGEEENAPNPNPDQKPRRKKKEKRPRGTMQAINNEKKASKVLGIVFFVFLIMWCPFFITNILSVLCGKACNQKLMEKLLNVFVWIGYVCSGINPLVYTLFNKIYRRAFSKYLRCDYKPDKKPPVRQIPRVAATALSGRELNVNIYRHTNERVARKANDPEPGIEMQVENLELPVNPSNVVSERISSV
Experiment: Displacement of [3H]mesulergine from 5-HT2C receptor in Sprague-Dawley rat cerebral cortex incubated for 15 mins in presence of spiperone by liquid scintillation counting analysis
ASSAY ENDPOINT: Ki (nM)
Give a bare numeral; the unit nM is implied.

{"SMILES DATA": "O=c1ccc(OCCCN2CCC(c3noc4cc(F)ccc34)CC2)nn1-c1cc(Cl)ccc1Cl", "UNIT ABBREVIATION": "nM", "TEST RESULT": 1}
{"SMILES DATA": "O=c1ccc(OCCCN2CCC(c3noc4cc(F)ccc34)CC2)nn1-c1cccc(Cl)c1Cl", "UNIT ABBREVIATION": "nM", "TEST RESULT": 177}
{"SMILES DATA": "O=c1ccc(OCCCN2CCC(c3noc4cc(F)ccc34)CC2)nn1-c1cc(F)ccc1F", "UNIT ABBREVIATION": "nM", "TEST RESULT": 9.1}

Would you kindly look at the next entry?
Task item: Specify measured Ki for "O=c1ccc(OCCCN2CCC(c3noc4cc(F)ccc34)CC2)nn1-c1c(F)cccc1F" .
Reply: 1580

----------
# maps each entry to its Ki
Target: D(2) dopamine receptor (Rattus norvegicus)
Test: Displacement of [3H]spiperone from dopamine D2 receptor in Sprague-Dawley rat striatum incubated for 30 mins by liquid scintillation counting analysis
The figure you give is taken to be in nM; do not add the unit.

Look over these answered cases.
{"SMILES DATA": "O=c1ccc(OCCCN2CCC(c3noc4cc(F)ccc34)CC2)nn1-c1ccccc1Cl", "SYSTEM TESTED": "D(2) dopamine receptor (Rattus norvegicus)", "UNIT ABBREVIATION": "nM", "TEST RESULT": 38.5}
{"SMILES DATA": "O=c1ccc(OCCCN2CCC(c3noc4cc(F)ccc34)CC2)nn1-c1ccc(Cl)cc1Cl", "SYSTEM TESTED": "D(2) dopamine receptor (Rattus norvegicus)", "UNIT ABBREVIATION": "nM", "TEST RESULT": 0.4}
{"SMILES DATA": "O=c1ccc(OCCCN2CCN(c3ccccc3F)CC2)nn1-c1ccc(Cl)c(Cl)c1", "SYSTEM TESTED": "D(2) dopamine receptor (Rattus norvegicus)", "UNIT ABBREVIATION": "nM", "TEST RESULT": 1200}

Task item: Write down the reported Ki (system: D(2) dopamine receptor (Rattus norvegicus)) of "O=c1ccc(OCCCN2CCC(c3noc4cc(F)ccc34)CC2)nn1-c1ccc(Cl)c(Cl)c1"
Reply: 7.8

Task item: Report Ki under test system D(2) dopamine receptor (Rattus norvegicus) for "O=c1ccc(OCCCN2CCN(c3ncccn3)CC2)nn1-c1ccc(Cl)c(Cl)c1" .
Reply: 914

Task item: Give the observed Ki of "O=c1ccc(OCCCN2CCN(c3ccccc3Cl)CC2)nn1-c1ccc(Cl)c(Cl)c1" for D(2) dopamine receptor (Rattus norvegicus).
Reply: 808

Task item: Write down measured Ki (D(2) dopamine receptor (Rattus norvegicus)) for this compound. "O=c1ccc(OCCCN2CCC(c3c[nH]c4ccccc34)CC2)nn1-c1ccc(Cl)c(Cl)c1"
Reply: 499

Task item: Report Ki under test system D(2) dopamine receptor (Rattus norvegicus) for "O=c1ccc(OCCCN2CCC(c3noc4cc(F)ccc34)CC2)nn1-c1ccc(F)cc1F" .
Reply: 174
